From: patent US8293768B2

// melting point lookup, one value per entry

Consider the reported melting point for these compounds:
- Cc1nc(-n2ccn(CCc3ccc(F)cc3)c2=O)sc1C(=O)NCc1cccnc1: 160 to 162 °C
- Cc1nc(N2CCN(Cc3ccc(C(F)(F)F)cc3)C2=O)sc1C(=O)O: 195 to 197 °C

Please turn your attention to the following entry.
# input Given Cc1nc(-n2ccn(Cc3ccc(F)cc3)c2=O)sc1C(=O)NCc1ccccc1 , state its recorded melting point.
# output 167 to 168 °C

----------
result_type: melting point

Please review the entries below; each comes with its answer.
- Cc1nc(N2CCN(Cc3csc4ccc(Cl)cc34)C2=O)sc1C(=O)NCc1cccnc1: 185 to 187 °C
- Cc1nc(N2CCN(Cc3ccc(OC(F)(F)F)cc3)C2=O)sc1C(=O)NCC1CC1: 184 to 186 °C

# input Could you tell me which melting point is on file for Cc1cc(-n2cnn(CCC3CC3)c2=O)sc1C(=O)NCc1cccnc1 ?
# output 148 to 150 °C

# input // next record O=C(NCc1cccnc1)c1sc(N2CCN(Cc3ccc(F)cc3)C2=O)nc1C(F)(F)F
# output 161 to 162 °C

# input Can you check Cc1nc(-n2cnn(Cc3c(C)noc3C)c2=O)sc1C(=O)NCc1cccnc1 next?
# output 233 to 234 °C

# input Check Cc1nc(N2CCN(CC(=O)NCc3ccc(F)cc3)C2=O)sc1C(=O)NCc1ccccc1 too.
# output 232 to 234 °C

# input Let us now turn to Cc1cnc(CNC(=O)c2sc(N3CCN(CC4CC4)C3=O)nc2C)cn1
# output 161 to 163 °C

# input Please give the result for CCCCCN1CCN(c2nc(C)c(C(=O)NCc3cccnc3)s2)C1=O too.
# output 102 to 103 °C
